Values were extracted from ChEMBL document CHEMBL1123290.

test system: Plasmodium berghei; assay: Antimalarial activity as 60-day survivors in infected mice (Mus musculus) after single 320mg/kg subcutaneous dose 72 hr post infection; type: functional
measureName: No. of mice cured
Enter a number only.

Query :: Check the records and state No. of mice cured for CCN(CC)Cc1cc(Nc2ccnc3cc(Cl)ccc23)cc(-c2cccc(F)c2F)c1O
Result :: 4

Query :: Check the records and state No. of mice cured for CN(C)Cc1cc(Nc2cc[n+]([O-])c3cc(Cl)ccc23)cc(-c2ccc(Cl)cc2)c1O
Result :: 3

Continuing:
Query :: Check the records and state No. of mice cured for CCN(CC)Cc1cc(Nc2ccnc3cc(Cl)ccc23)cc(-c2cccc(C(F)(F)F)c2)c1O
Result :: 3

Query :: Check the records and state No. of mice cured for CCN(CC)Cc1cc(Nc2ccnc3cc(Cl)ccc23)cc(-c2ccccc2F)c1O
Result :: 5

Query :: Check the records and state No. of mice cured for CCN(CC)Cc1cc(Nc2ccnc3cc(Cl)ccc23)cc(-c2ccccc2Cl)c1O
Result :: 4

###

system: Plasmodium berghei; assay: Change in mean survival time for control (average of 6.2 days) versus treated mice (Mus musculus) 72 hrs after 80 mg/kg subcutaneous dose; type: functional
measureName: Delta MST (days)
Respond numerically; units are days and should not be typed.

Worked cases, Delta MST given:
Query :: Check Plasmodium berghei data and give Delta MST for CCN(CC)Cc1cc(Nc2ccnc3cc(Cl)ccc23)cc(-c2ccc(OC)cc2)c1O .
Result :: 12.4

Query :: Check Plasmodium berghei data and give Delta MST for CC(C)(C)NCc1cc(Nc2ccnc3cc(Cl)ccc23)cc(-c2ccc(F)cc2)c1O .
Result :: 12.4

Query :: Check Plasmodium berghei data and give Delta MST for Oc1c(CNC23CC4CC(CC(C4)C2)C3)cc(Nc2ccnc3cc(Cl)ccc23)cc1-c1ccc(Cl)cc1 .
Result :: 23

Query :: Check Plasmodium berghei data and give Delta MST for CCN(CC)Cc1cc(Nc2ccnc3cc(Cl)ccc23)cc(-c2ccncc2)c1O .
Result :: 11.5

Query :: Check Plasmodium berghei data and give Delta MST for CCN(CC)Cc1cc(Nc2ccnc3cc(Cl)ccc23)cc(-c2ccccc2OC)c1O .
Result :: 14.9

Continuing:
Query :: Check Plasmodium berghei data and give Delta MST for CCN(CC)Cc1cc(Nc2ccnc3cc(Cl)ccc23)cc(-c2cccc3ccccc23)c1O .
Result :: 5.8

Query :: Check Plasmodium berghei data and give Delta MST for CCN(CC)Cc1cc(Nc2ccnc3cc(Cl)ccc23)cc(-c2ccccn2)c1O .
Result :: 7.8

###

tested on: Plasmodium berghei; test: Change in mean survival time for control (average 6.2 days) versus treated mice (Mus musculus) 72 hrs after […] subcutaneous dose; format: functional
measureName: Delta MST (days)
Respond numerically; units are days and should not be typed.

Worked cases, Delta MST given:
Query :: Check the records and state Delta MST for Oc1c(CNC2CCCCC2)cc(Nc2ccnc3cc(Cl)ccc23)cc1-c1ccc(Cl)cc1
Result :: 0.5

Query :: Check the records and state Delta MST for CCN(CC)Cc1cc(Nc2ccnc3cc(Cl)ccc23)cc(-c2ccc(C)cc2)c1O
Result :: 0.4

Query :: Check the records and state Delta MST for CCCCN(CCCC)Cc1cc(Nc2ccnc3cc(Cl)ccc23)cc(-c2ccc(Cl)cc2)c1O
Result :: 0.2

Query :: Check the records and state Delta MST for CCN(CC)Cc1cc(Nc2ccnc3cc(Cl)ccc23)cc(-c2cccc(F)c2)c1O
Result :: 1.8

Continue with the next molecule.
Query :: Check the records and state Delta MST for CCN(CC)Cc1cc(Nc2ccnc3cc(Cl)ccc23)cc(-c2ccc(OC)cc2)c1O
Result :: 0.1
